# SYSTEM: FGFR1 (UniProt P11362)
# Sequence (P11362 whole entry, looked up): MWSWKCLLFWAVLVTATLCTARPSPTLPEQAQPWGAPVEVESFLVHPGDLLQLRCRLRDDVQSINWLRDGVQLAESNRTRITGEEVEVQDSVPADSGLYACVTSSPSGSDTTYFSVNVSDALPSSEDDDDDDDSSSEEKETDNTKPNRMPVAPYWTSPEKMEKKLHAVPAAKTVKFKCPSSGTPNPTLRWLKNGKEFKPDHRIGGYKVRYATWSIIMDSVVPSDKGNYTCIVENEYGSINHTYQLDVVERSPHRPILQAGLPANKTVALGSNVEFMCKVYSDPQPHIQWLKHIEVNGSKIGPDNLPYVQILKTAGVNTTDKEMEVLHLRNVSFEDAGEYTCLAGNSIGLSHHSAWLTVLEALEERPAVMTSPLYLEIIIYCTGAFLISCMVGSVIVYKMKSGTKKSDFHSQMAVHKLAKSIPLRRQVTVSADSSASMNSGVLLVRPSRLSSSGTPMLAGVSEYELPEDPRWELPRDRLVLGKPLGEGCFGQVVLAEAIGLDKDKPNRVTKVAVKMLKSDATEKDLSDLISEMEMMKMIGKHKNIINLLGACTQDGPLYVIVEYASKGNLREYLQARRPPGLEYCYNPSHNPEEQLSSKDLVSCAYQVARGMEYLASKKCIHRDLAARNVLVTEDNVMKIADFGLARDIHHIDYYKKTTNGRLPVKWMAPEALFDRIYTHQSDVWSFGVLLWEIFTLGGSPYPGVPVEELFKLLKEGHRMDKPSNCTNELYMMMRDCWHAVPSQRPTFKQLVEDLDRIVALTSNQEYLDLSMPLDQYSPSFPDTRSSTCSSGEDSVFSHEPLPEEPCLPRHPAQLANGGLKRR
# ASSAY INFO: phosphorylation enrichment, bacterial display (enrichment ratio); higher = better substrate or ligand; peptides without Tyr show the background
Assign class by phosphorylation enrichment: not lower than 0.5 means true (1); lower than 0.5 means false (0).

# POLYMER SEQUENCE, SYSTEM, ASSIGNED LABEL
data = [
    ("NMRSTYAKLAA [SEC22B_Y193_H190R]", "FGFR1 (UniProt P11362)", "false (0)"),
    ("KVITDYFVDMK [MPP4_Y566_YF]", "FGFR1 (UniProt P11362)", "true (1)"),
    ("DKEKWYPLGNS [PIK3C2G_Y1438]", "FGFR1 (UniProt P11362)", "false (0)"),
]

Hi, just wondering whether NTGVYYDLYGG [PTPN11_Y63_D61V] shows phosphorylation enrichment of 0.5 or higher.
true (1)

For this sequence, is measured phosphorylation enrichment 0.5 or higher? NETNKYQISVN [FGB_Y368_A365T]
false (0)

Item IRKTEYPFSSE [ATP2C1_Y452_A450T] with phosphorylation enrichment of 0.5 or above?
false (0)

Item MKGDYYCYLAE [YWHAG_Y131_R132C] with phosphorylation enrichment of 0.5 or above?
true (1)

Entry LARNMYDKEFF [MET_Y1230_D1228N_YF] : is its phosphorylation enrichment no less than 0.5?
true (1)

Textbook exercise: given the entry FFCRWYRNRKS [EREG_Y144_YF] , state whether its phosphorylation enrichment is greater than or equal to 0.5.
false (0)

Determine whether measured phosphorylation enrichment meets or exceeds 0.5 for YTGDIYSSSNL [LZTR1_Y141_N143S]
true (1)

Record FGVVGYLAIMF [RNF175_Y155] ; criterion: phosphorylation enrichment no lower than 0.5. Met?
false (0)

Assess whether reported phosphorylation enrichment for VECQVYAEDPY [PCCA_Y401_R399Q] sits at 0.5 or higher.
true (1)

###

# SYSTEM: c-Src SH2
# ASSAY INFO: SH2 binding enrichment of the phosphorylated peptide, bacterial display (enrichment ratio); higher = better substrate or ligand; peptides without Tyr show the background
ENDPOINT: SH2 binding enrichment
Lab note: record the figure alone, no unit after it.

Examples with their reported SH2 binding enrichment follow.
# POLYMER SEQUENCE, SYSTEM, SH2 binding enrichment
rows = [
    ("SEPDLYFDPRG [PKP1_Y160_C161Y_YF]", "c-Src SH2", 0.492),
    ("FNNPAYFVLEG [INPPL1_Y986_YF]", "c-Src SH2", 2.06),
    ("GDFFRSLAEVA [YWHAG_Y133_Y133S_YF]", "c-Src SH2", 0.4),
]

Request: SH2 binding enrichment, test system c-Src SH2, entry KERNQYGEVMV [MMP21_Y347]
0.391

Query the reported SH2 binding enrichment for c-Src SH2; item: RAILNYIASKY [GSTA3_Y74]
1.17

Recall the recorded SH2 binding enrichment for PEADKYCLTYA [FGG_Y300_R301C] with c-Src SH2 and state it.
0.687

Report SH2 binding enrichment for IGEGTYGQVFK [CDK13_Y716_YF] tested on c-Src SH2.
0.426

Please state recorded SH2 binding enrichment (tested on c-Src SH2) of AGQERYRAITS [RAB11B_Y73]
0.404

Under c-Src SH2: SH2 binding enrichment value of YEEDSYSHIMA [FDPS_Y388] ?
2.41

Tell me reported SH2 binding enrichment for VDSAHYKLLET [DTX3L_Y385] , tested with c-Src SH2.
0.517

Provide the documented SH2 binding enrichment with c-Src SH2 as the system for TLKDVYDDGKY [RPS6KA3_Y483]
0.528

Provide the documented SH2 binding enrichment with c-Src SH2 as the system for KRPAVYIDEEA [EPM2A_Y304]
0.711

Kindly state the measured SH2 binding enrichment obtained for KSAAIYNPVIY [RHO_Y301] with c-Src SH2.
1.02

Any idea what SH2 binding enrichment came out for VDGSVYKLHPS [GCK_Y413] on c-Src SH2?
0.488

Any idea what SH2 binding enrichment came out for EGWQVYRLGTR [MISP_Y95_A99T] on c-Src SH2?
0.546

Recall the recorded SH2 binding enrichment for PPLMLYNPTTF [EGFR_Y270_YF] with c-Src SH2 and state it.
0.278

For c-Src SH2, provide SH2 binding enrichment of MKGDFYCFLAE [YWHAG_Y131_R132C_YF] please.
0.54

Missing value: SH2 binding enrichment, c-Src SH2, entry QIGRKYKKVRF [F8_Y442_R437Q] . Fill in?
0.321

Any idea what SH2 binding enrichment came out for EGNEQYEGFCV [GRIA3_Y451_R450Q_YF] on c-Src SH2?
0.56

// fetch c-Src SH2 SH2 binding enrichment for EFITRYIASLK [PSMA7_Y110_YF]
0.873

Find the measured SH2 binding enrichment: item LARNMYDKEFF [MET_Y1230_D1228N_YF] , target or system c-Src SH2.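 Further: peptide library displayed on the E. coli surface as eCPX fusions, selected cells deep-sequenced, score is each peptide's frequency after selection divided by its frequency in the input.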
0.541

###

# SYSTEM: Fyn (UniProt P06241)
# Sequence (P06241 whole entry, looked up): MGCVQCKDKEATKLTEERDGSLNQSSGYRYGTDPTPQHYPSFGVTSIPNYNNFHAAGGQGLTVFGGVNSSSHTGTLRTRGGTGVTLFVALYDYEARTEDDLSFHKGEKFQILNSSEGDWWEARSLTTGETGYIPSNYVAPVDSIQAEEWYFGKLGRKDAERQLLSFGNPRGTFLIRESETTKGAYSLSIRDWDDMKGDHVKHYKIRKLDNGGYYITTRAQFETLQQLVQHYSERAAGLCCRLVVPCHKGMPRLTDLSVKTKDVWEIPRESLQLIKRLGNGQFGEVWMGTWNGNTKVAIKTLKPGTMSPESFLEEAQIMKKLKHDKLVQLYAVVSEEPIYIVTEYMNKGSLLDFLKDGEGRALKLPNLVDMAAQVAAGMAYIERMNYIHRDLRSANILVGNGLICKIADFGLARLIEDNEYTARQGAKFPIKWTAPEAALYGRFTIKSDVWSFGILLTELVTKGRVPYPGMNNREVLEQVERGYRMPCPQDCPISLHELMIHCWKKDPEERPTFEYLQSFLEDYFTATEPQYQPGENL
# ASSAY INFO: phosphorylation enrichment, bacterial display (enrichment ratio); higher = better substrate or ligand; peptides without Tyr show the background
Assign class 1 to entries whose phosphorylation enrichment meets or exceeds 0.5; assign class 0 to the rest.

Look over these answered cases.
# POLYMER SEQUENCE, ASSIGNED LABEL
measured = [
    ("PLQDVYKIGGI [EEF1A2_Y254]", "class 1"),
    ("VNCHQYDGLVG [ATP2A2_Y407_E412G]", "class 0"),
    ("KLKPIYFHTQG [AR_Y916_V912L]", "class 0"),
    ("EWKQNYEESQS [MYH7_Y1460_K1459N]", "class 0"),
    ("RAEAPYLLVSN [LRIG1_Y1054_Q1053P]", "class 1"),
    ("VFDMLYQLANL [USP24_Y1087]", "class 1"),
    ("IKNSGYISQFL [EIF2AK3_Y585_R588Q_YF]", "class 1"),
    ("LTPVKYLLSAT [GSDMC_Y26]", "class 0"),
    ("EFQKKYSDADI [CKAP5_Y1860_K1857Q_YF]", "class 0"),
    ("GGFSRYDEGSG [RECQL5_Y484_D480G]", "class 0"),
]

Consider the additional sequence presented here.
Confirm if phosphorylation enrichment reported for the sequence GVLDIYGFEIL [MYO1A_Y382] is 0.5 or above.
class 1

###

# SYSTEM: EPHB1 (UniProt P54762)
# Sequence (P54762 whole entry, looked up): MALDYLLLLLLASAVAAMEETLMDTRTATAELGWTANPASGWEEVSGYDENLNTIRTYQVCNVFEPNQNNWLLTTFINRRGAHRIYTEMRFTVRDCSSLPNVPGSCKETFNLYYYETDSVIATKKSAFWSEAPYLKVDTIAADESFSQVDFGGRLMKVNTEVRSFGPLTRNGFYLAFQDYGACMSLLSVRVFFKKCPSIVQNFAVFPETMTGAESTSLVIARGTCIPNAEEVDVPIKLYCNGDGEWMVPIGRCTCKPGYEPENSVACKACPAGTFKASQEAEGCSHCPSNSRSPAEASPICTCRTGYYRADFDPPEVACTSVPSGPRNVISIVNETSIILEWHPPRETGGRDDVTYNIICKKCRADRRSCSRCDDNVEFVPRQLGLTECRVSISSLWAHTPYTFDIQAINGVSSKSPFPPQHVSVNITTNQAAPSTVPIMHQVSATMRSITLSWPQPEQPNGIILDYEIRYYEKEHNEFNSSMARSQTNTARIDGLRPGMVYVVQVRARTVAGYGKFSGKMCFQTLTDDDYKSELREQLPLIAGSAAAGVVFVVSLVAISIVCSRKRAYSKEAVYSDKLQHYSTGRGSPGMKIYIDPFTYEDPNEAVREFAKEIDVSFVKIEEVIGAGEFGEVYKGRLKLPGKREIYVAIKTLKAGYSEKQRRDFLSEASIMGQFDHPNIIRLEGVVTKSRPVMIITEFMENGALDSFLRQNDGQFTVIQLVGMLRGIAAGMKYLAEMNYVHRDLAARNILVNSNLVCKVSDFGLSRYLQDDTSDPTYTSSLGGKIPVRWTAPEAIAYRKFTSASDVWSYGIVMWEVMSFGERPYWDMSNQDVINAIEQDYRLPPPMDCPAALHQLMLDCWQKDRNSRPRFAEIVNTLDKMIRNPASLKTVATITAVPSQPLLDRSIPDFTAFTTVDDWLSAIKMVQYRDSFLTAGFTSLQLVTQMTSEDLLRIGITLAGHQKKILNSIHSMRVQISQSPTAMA
# ASSAY INFO: phosphorylation enrichment, bacterial display (enrichment ratio); higher = better substrate or ligand; peptides without Tyr show the background
ENDPOINT: phosphorylation enrichment
Please give the numeric answer without any surrounding text.

# get_value(readout='phosphorylation enrichment', item= RFLRGYRQHAY [HLA-A_Y137_D140H] )
0.787

Can you look up the measured phosphorylation enrichment of PGVDRYSLGTS [C5orf42_Y1451] for me?
0.577

What phosphorylation enrichment value was documented for this sequence, DLDPNYVLSSR [CKM_Y125] ?
0.523

Quick one: phosphorylation enrichment of GLVFLYMEKNQ [PRELP_Y156] ?
0.607

Can you look up the measured phosphorylation enrichment of PEADKYCLTYA [FGG_Y300_R301C] for me?
0.722

Sample VTRLWYPVCFG [ITK_Y336_R335W] — what was its phosphorylation enrichment?
0.66

Item under review: HGVSSYDTVIS [LDLR_Y465] . Reported phosphorylation enrichment?
0.515

###

Measured phosphorylation enrichment by item
# Test system: AncSZ
# ASSAY INFO: phosphorylation enrichment, bacterial display (enrichment ratio); higher = better substrate or ligand; peptides without Tyr show the background
// return a plain number; no unit text

# POLYMER SEQUENCE, SYSTEM, MEASUREMENT
measured = [
    ("IKRIAYEFVEM [ADA_Y84]", "AncSZ", 0.85),
    ("LAEMNYVHRDL [EPHB1_Y740]", "AncSZ", 1.32),
    ("FRSSLYSLMET [MYO5C_Y633_L634S]", "AncSZ", 1.12),
    ("VDSLRYIFPKL [EIF2B3_Y92_A87V_YF]", "AncSZ", 0.704),
    ("ANNQRYAFMPL [TMEM87B_Y460]", "AncSZ", 0.588),
]

Sample AIYEGYALPHA [ACTC1_Y171_P166A] — what was its phosphorylation enrichment?
1.77

Entry RYFTTYDTNGR [CLCA1_Y665] : reported phosphorylation enrichment = ?
0.657
